# Target or system: Dual specificity protein phosphatase 3 (Homo sapiens)
# Method notes: VHR1 phosphatase inhibitors, biochemical (AID 1878)
# Assay setup: recombinant VHR phosphatase, fluorogenic substrate; at 13.3 µM; hits give high values
The whole screen tested about 1,000 compounds, of which about 200 (20%) were called active. Only a sample is shown. Entries with a potency or affinity are not part of this list.
Consider the following compounds; for each one, report its inhibition.
Write the value in % as a bare number.

-- ask I have this compound here, COC(=O)c1ccc(CNC(=O)C2CCC(=O)N(Cc3ccccn3)C2)cc1 (centres undefined) , and I need its recorded inhibition.
-- reply -6

-- ask // inhibition lookup, key: CCOC(=O)C1=C(N)Oc2ccc3ccccc3c2C1c1cccc(O)c1 (centres undefined)
-- reply -5.7

-- ask Could you tell me which inhibition is on file for O=C(CCNC(=O)N1CC(=O)Nc2ccccc21)Nc1cccc(Cl)c1 ?
-- reply 2

-- ask Requested field: inhibition. Item: Cc1ccc(NC(=S)c2ccc3ccccc3n2)c(C)c1
-- reply 5.5

-- ask Please give the measured inhibition for this compound: O=C(O)C(Cc1ccccc1)N1C(=O)/C(=C/C=C/c2ccco2)SC1=S (centres undefined)
-- reply 71.7

-- ask Which inhibition is listed for COc1ccc2c(c1)cc(C(=O)N[C@@H](Cc1ccccc1)C(=O)N[C@@H](C)C(=O)O)n2C ?
-- reply -10.4

-- ask Returns the measured inhibition for the input compound. Input: CSc1sccc1/C=C(/C#N)C(=O)c1ccco1
-- reply 28.9

-- ask Give the measured inhibition of Nc1ccc2nc3c(=O)[nH]c(=S)[nH]c3nc2c1 .
-- reply 61.5

-- ask Consider the compound Cn1c(C(=O)N[C@@H](Cc2ccccc2)C(=O)O)cc2cc(Cl)ccc21 and give its measured inhibition.
-- reply 3.5

-- ask Give the measured inhibition of CN(C)CCCNC(=S)N(CCCN(C)C)Cc1cc2cc3c(cc2[nH]c1=O)OCO3 .
-- reply -11.5

-- ask Look at this compound and give its reported inhibition. O=C(CCC(=O)c1ccc(Cl)cc1)NCc1ccccc1
-- reply 3.5

-- ask Look up inhibition: COc1ccccc1NS(=O)(=O)c1ccc2oc(SC)nc2c1
-- reply -3.1

-- ask Need inhibition of COCCn1c(SCC(=O)Nc2cccc(C)n2)nnc1-c1ccco1 , thanks.
-- reply 3.1

-- ask Reported inhibition for CC(C(=O)O)N1C(=O)/C(=C/C=C/c2ccco2)SC1=S (centres undefined) : what is it?
-- reply 97.9

-- ask Find the recorded inhibition belonging to CCCCNC(=O)NNC(=O)C1CC1(c1ccccc1)c1ccccc1 (centres undefined) and report it.
-- reply 9.1

-- ask Returns the measured inhibition for the input compound. Input: CC(C)C(=O)N1CCC(n2nccc2NC(=O)CCc2ccccc2)CC1
-- reply -2.1

-- ask What value of measured inhibition is listed for CC1CC(C)CN(CCCNC(=O)Cn2cccc2C(=O)c2ccccc2)C1 (centres undefined) ?
-- reply -12.8

-- ask Given the compound CCc1nn(CC(=O)NCc2ccccc2Cl)c(=O)c2cccn12 , what is its reported inhibition?
-- reply 17.5

-- ask Which inhibition value is on record for Cc1cc(-n2c(SCC(=O)NCCC3=CCCCC3)nc3n[nH]c(C)c3c2=N)ccc1Cl ?
-- reply 15.1

-- ask Quick one: inhibition for COc1ccc(NC2CCCN(C(=O)c3oc(C)cc3C)C2)cc1OC (centres undefined) ?
-- reply 1.1

-- ask Dear colleague, I am looking for the recorded inhibition of the following compound: Cc1cc(-c2ccc(C)c(S(=O)(=O)NCCCN(Cc3ccccc3)C(C)C)c2)on1
-- reply 3.1

-- ask Item COc1ccccc1Nc1nn2c(=O)c3ccc(C(=O)NCc4cccnc4)cc3nc2s1 has what recorded inhibition?
-- reply 97.1

-- ask Using the record for CC(C)(C)c1cc(=O)n2[nH]c(N)nc2n1 , report its inhibition.
-- reply -15.2

-- ask Endpoint output: inhibition of O=C(C1CC1)N1N=C(c2cccc(Br)c2)CC1(O)C(F)(F)F (centres undefined) . Value?
-- reply 2.7

-- ask Consider the compound shown here: CCc1c(C)nc2c(-c3ccccc3)c(-c3ccccc3)[nH]n2c1=O What is its recorded inhibition?
-- reply 1.4

-- ask Value lookup for inhibition; key = COc1cccc2[nH]c3c(=O)[nH]cnc3c12
-- reply -1.7

-- ask So what does the record say about inhibition for O=C(COCc1cc(-c2ccc3c(c2)OCO3)on1)Nc1cccnc1Cl ?
-- reply 2.9

-- ask inhibition lookup needed for COC(=O)C1=CN(Cc2ccc(OC)cc2)C=C(C(=O)OC)C1c1ccc(O)c(OC)c1 , thanks.
-- reply 8.4

-- ask Fill in the blank: the reported inhibition of CS(=O)(=O)NN1C(=O)c2ccccc2NC1c1ccccc1F (centres undefined) is ____.
-- reply -7.9

====

Hi there, I'd appreciate the recorded inhibition for every entry that follows.
# Target or system: Dual specificity protein phosphatase 3 (Homo sapiens) (UniProt P51452)
# Sequence (P51452 whole entry, looked up): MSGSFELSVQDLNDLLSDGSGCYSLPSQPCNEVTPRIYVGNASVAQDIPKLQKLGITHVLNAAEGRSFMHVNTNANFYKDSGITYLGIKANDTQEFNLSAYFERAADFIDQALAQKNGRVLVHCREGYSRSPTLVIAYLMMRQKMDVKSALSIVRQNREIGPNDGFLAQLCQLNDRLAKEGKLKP
# Method notes: VHR1 phosphatase inhibitors, biochemical (AID 1878)
# Assay setup: recombinant VHR phosphatase, fluorogenic substrate; at 13.3 µM; hits give high values
About 200 (20%) of roughly 1,000 compounds were called active. The list is a sample of the results. Results with a measured potency or affinity are listed apart.

-- ask So what's the measured inhibition for this one? Cc1cc(C(=O)N/N=C/c2cc([N+](=O)[O-])cc(C)c2O)n[nH]1
-- reply 76.1% (active)

-- ask What does the record list as inhibition for Cc1ccc(S(=O)(=O)/C(C#N)=C/c2c(N3CCOCC3)nc3c(C)cccn3c2=O)cc1 ?
-- reply 3% (inactive)

-- ask Sample COCCN(C(=O)CCC(=O)Nc1nccs1)C(C(=O)NCCC(C)C)c1ccc(OC)cc1 (stereo not drawn) — what was its inhibition?
-- reply -22% (inactive)

-- ask Field request: inhibition | item: Oc1ccc(-c2nc3ccccc3nc2-c2ccccc2)cc1
-- reply -3.2% (inactive)

-- ask Query (compound): COc1cc(C(C)=O)ccc1OCC(O)CN1CCN(c2ccc(F)cc2)CC1 (stereo not drawn) ; field requested: inhibition
-- reply -0.4% (inactive)

-- ask Field request: inhibition | item: CSCCNC(=O)c1ccc2nc(Cc3ccccc3F)oc2c1
-- reply -8.6% (inactive)

-- ask Please give the measured inhibition for this compound: CCC(N)Cc1c[nH]c2ccccc12 (stereo not drawn)
-- reply 14.4% (inactive)

-- ask Consider the compound Cn1c(SCC(=O)c2ccc3c(c2)Cc2ccccc2-3)nnc1-c1ccccc1 and give its measured inhibition.
-- reply 83.7% (active)

-- ask State the recorded inhibition for this entry: CCCN1CCN(CCNC(=O)Nc2cc(C)ccc2C)CC1
-- reply -9.3% (inactive)

-- ask Would you kindly share the measured inhibition for Cc1ccc(NC(=O)CCNC(=O)c2ccccc2Cl)nc1 ?
-- reply 1.9% (inactive)

-- ask Could you tell me which inhibition is on file for CC(C)c1ccc(NS(=O)(=O)c2cccc3cccnc23)cc1 ?
-- reply -1% (inactive)

-- ask Quick check: inhibition of O=C(CSc1nnc(-c2ccccc2)o1)c1ccc2c(c1)OCCO2 ?
-- reply -8.7% (inactive)

-- ask Dear colleague, I am looking for the recorded inhibition of the following compound: CC1CCCCN1CCCNC(=O)CCCN1C(=O)c2cccnc2Sc2ccccc21 (stereo not drawn)
-- reply -12.7% (inactive)

-- ask What measured inhibition goes with COc1ccc(NC2CCCN(C(=O)c3ccc(CSC)o3)C2)cc1OC (stereo not drawn) ?
-- reply 20.5% (inactive)

-- ask Consider the compound shown here: CCCCn1nc(NC(=O)CC(C)C)c2cc3cc(OC)ccc3nc21 What is its recorded inhibition?
-- reply 2.1% (inactive)

-- ask What does the record list as inhibition for Cn1cc(CN2CCCCC2C(=O)Nc2ccc(-n3cccn3)cc2)cn1 (stereo not drawn) ?
-- reply 10.3% (inactive)

-- ask What inhibition value was documented for this compound, COCCN(CC1CCCN(C2Cc3ccccc3C2)C1)C(=O)CSC (stereo not drawn) ?
-- reply -11.6% (inactive)

-- ask Would you kindly share the measured inhibition for Cc1ccc(-c2[nH]ncc2C(=O)c2ccccc2C)c(O)c1 ?
-- reply -9% (inactive)

====

# Target or system: Dual specificity protein phosphatase 3 (Homo sapiens) (UniProt P51452)
# Method notes: VHR1 phosphatase inhibitors, biochemical (AID 1878)
# Assay setup: recombinant VHR phosphatase, fluorogenic substrate; at 13.3 µM; hits give high values
The whole screen tested about 1,000 compounds, of which about 200 (20%) were called active. Not all results are given here. Potency and affinity values are given separately.
Readout: inhibition (%)
# output: bare number, implied unit %

-- ask Look up inhibition: CN1C(C)(C)CC(NC(=O)c2ccco2)CC1(C)C
-- reply -4.7

-- ask Given the entry O=C(CCc1nnc2ccc(NCc3ccccc3)nn12)NC1CCCCC1 , report its measured inhibition.
-- reply 4.6

-- ask Report inhibition for Oc1ccccc1/C=N/Nc1cc(N2CCCC2)nc(N2CCCC2)n1 please.
-- reply -15.5

-- ask inhibition lookup needed for CCCN1CCC(=O)N([C@H](CSc2ccccc2)CC(C)C)CC1 , thanks.
-- reply -3.5

-- ask Give the measured inhibition of Cn1c(/C=C/c2ccc(Cl)cc2Cl)c([N+](=O)[O-])c(=O)n(C)c1=O .
-- reply 20.2

-- ask State the recorded inhibition for this entry: Cc1ccc(NC(=O)CCC(=O)c2ccc(Br)cc2)cc1
-- reply 8.7

-- ask inhibition lookup needed for COc1cccc(/C=N/Nc2ncnc3c2[nH]c2ccc(C)cc23)c1OC , thanks.
-- reply 97.6

-- ask I would be grateful if you could share the reported inhibition for OCCC1CN(Cc2ccc(F)cc2)CCN1CCc1ccccc1 (centres undefined) .
-- reply -5.4

-- ask Recorded inhibition of CCOc1ccc(C(=O)OCC(=O)NCc2ccco2)cc1OCC , please.
-- reply 3.1
